- System: SF-295
- test_description: NCI tumour cell line growth inhibition, 48 h
Active and inactive are the calls of the source. Cut-off read from the data, not from the text of the source: active = GI50 up to about 1.1 µM and inactive = higher.
Respond using exactly one of the listed classes: active, inactive

Kindly provide the recorded test outcome for the following molecule: O=[N+]([O-])c1ccc(O)c(/C=N/c2nc(-c3ccccc3)cs2)c1
inactive

Kindly provide the recorded test outcome for the following molecule: Cc1cn(C2CC(n3cc(Cn4cc(Br)c(=O)[nH]c4=O)nn3)C(CO)O2)c(=O)[nH]c1=O (stereo not given)
inactive

Kindly provide the recorded test outcome for the following molecule: COc1cc2c(cc1OCCCNC(=O)c1cc3ccccc3[nH]1)N=C[C@@H]1CCCN1C2=O
active

Kindly provide the recorded test outcome for the following molecule: CCN(CC)C(=S)SNCc1ccc(S(N)(=O)=O)cc1
inactive

Kindly provide the recorded test outcome for the following molecule: C[C@@H]1C(=O)C[C@H]2C(C)(C)CCC[C@]2(C)[C@@]1(O)CCc1ccoc1
inactive

====

- Test system: NCI-H460
- test_description: NCI tumour cell line growth inhibition, 48 h
Calls of active or inactive are those of the source. Rule as the data show it: active = GI50 up to about 1.1 µM and inactive = higher.
Respond using exactly one of the listed classes: active, inactive

Kindly provide the recorded test outcome for the following molecule: CC(=O)NNc1nc(C)c(C(/C=C/c2ccccc2O)=N/NC(=O)c2ccncc2)s1
inactive

Kindly provide the recorded test outcome for the following molecule: O=C1C(Cl)N(c2ccc(Cl)cc2Cl)C1c1c[nH]c2ccccc12 (stereo not drawn)
inactive

Kindly provide the recorded test outcome for the following molecule: CN1N=C(c2ccncc2)OC1c1ccccc1F (stereo not drawn)
inactive

Kindly provide the recorded test outcome for the following molecule: O=C(O)c1ccc(Nc2nc3ccccc3nc2C(=O)O)cc1
inactive

Kindly provide the recorded test outcome for the following molecule: CC(=O)OC1CCC2C3CCc4c(C)ccc(OS(=O)(=O)c5ccccc5)c4C3CCC12C (stereo not drawn)
inactive

Kindly provide the recorded test outcome for the following molecule: Nc1nc(N)c2ncn(CCOC(c3ccccc3)P(=O)(O)O)c2n1 (stereo not drawn)
inactive

Kindly provide the recorded test outcome for the following molecule: CN(C)CC(C)(C)C(=O)/C=C/c1ccccc1
inactive

Kindly provide the recorded test outcome for the following molecule: CCCCC[C@@H]1OCO[C@@]2(C)/C=C(C)\C=C/C(=O)O[C@H]([C@@H](C)[C@@H](O)[C@H](C)[C@@]3(O)C[C@@H](O[C@H]4C[C@@H](O)[C@H](O)[C@@H](C)O4)[C@H](C)[C@@H](C)O3)[C@@H](OC)/C=C\C=C(\C)C[C@@H]1[C@@H]2O (stereo in doubt)
active

====

- Tested on: SNB-19
- test_description: NCI tumour cell line growth inhibition, 48 h
Activity calls are given as the source filed them. No stated cut-off is given here; in the data, active = GI50 up to about 1.1 µM and inactive = higher.
Answer each item with its documented GI50.

GI50 reading for NC(=S)N/N=C(\CC1OC(=O)c2ccccc21)c1ccc(Cl)cc1 (stereo unspecified) : 42.7 µM (inactive)

GI50 reading for Clc1c(Cl)c(Cl)c2nn(C3CCCO3)nc2c1Cl (stereo unspecified) : 26.7 µM (inactive)

GI50 reading for CC(=O)CCC[C@@H](C)[C@@H]1O[C@H]([C@@]2(C)CCC(=O)O2)C[C@H]2C(CSc3ccccc3)C(=O)O[C@@H]12 (stereo partly specified) : 33.4 µM (inactive)

GI50 reading for CC(=O)CCn1c(=S)sc2ccccc21 : > 100 µM (inactive)

GI50 reading for CC(C)[C@H](NC(=O)[C@H](N)Cc1ccc(N(CCCl)CCCl)cc1)C(=O)O : > 100 µM (inactive)

GI50 reading for c1ccc(C2=NOC3COc4ccccc4OCC23)cc1 (stereo unspecified) : > 100 µM (inactive)

GI50 reading for C=CC1C(OC2OC(CO)C(O)C(O)C2O)OC=C(C(=O)OC)C1CC1CC(=O)CC(CCc2ccc(O)cc2)O1 (stereo unspecified) : > 100 µM (inactive)

GI50 reading for Nc1nc(Cl)c(CO)c(NCC2(CO)CCC2)n1 : 94.2 µM (inactive)

GI50 reading for CCN(C(=N)C#N)c1ccccc1 : > 100 µM (inactive)

GI50 reading for CCOC(=O)c1c(C)n(-c2ccc(Cl)cc2)c2c1cc(O)c1[nH]c3c(c12)CCCC3 : 46.3 µM (inactive)

GI50 reading for Nc1cc(C(=O)O)nc(O)n1 : > 100 µM (inactive)

====

- Test system: NCI-H460
- test_description: NCI tumour cell line growth inhibition, 48 h
Calls of active or inactive are those of the source. Cut-off read from the data, not from the text of the source: active = GI50 up to about 1.1 µM and inactive = higher.
Answer each item with its documented GI50.

The compound S=C(c1c[nH]c2ccccc12)N1CCCCC1 , tested on NCI-H460, showed GI50 of > 100 µM (inactive)

The compound C=C(C)C(=O)OC1C/C(CO)=C\C(O)C/C(C)=C/C2OC(=O)C(=C)C21 (stereo unspecified) , tested on NCI-H460, showed GI50 of 17.7 µM (inactive)

The compound COC(=O)c1c(O)ccc2c1c1c(n2Cc2ccc(Cl)cc2Cl)C(=O)c2ccccc2C1 , tested on NCI-H460, showed GI50 of 33.3 µM (inactive)

The compound CCOC(=O)N1C/C(=C\c2ccc(N(C)C)cc2)C(=O)/C(=C/c2ccc(N(C)C)cc2)C1 , tested on NCI-H460, showed GI50 of > 100 µM (inactive)

The compound O=C(O)Cc1ccc(Oc2nc3ccccc3nc2C(=O)O)cc1 , tested on NCI-H460, showed GI50 of > 100 µM (inactive)

The compound C#CCC[C@@H]1O[C@@]1(C)CC/C=C(\C)CC/C=C/C=O , tested on NCI-H460, showed GI50 of 41.1 µM (inactive)

The compound COc1cc(C(=O)CC2(O)C(=O)Nc3c(Cl)cc(Cl)cc32)ccc1O (stereo unspecified) , tested on NCI-H460, showed GI50 of 75.7 µM (inactive)

The compound CC(=O)CCC[C@@H](C)[C@@H]1O[C@H]([C@@]2(C)CCC(=O)O2)C[C@H]2C(CSc3ccccc3)C(=O)O[C@@H]12 (stereo partly specified) , tested on NCI-H460, showed GI50 of 20.7 µM (inactive)

The compound CCCc1nc(NC#N)nc(C(=O)NC23CC4CC(CC(C4)C2)C3)c1C , tested on NCI-H460, showed GI50 of > 100 µM (inactive)

The compound NC(CCc1nc(-c2ccc(Cl)cc2)cs1)C(=O)O (stereo unspecified) , tested on NCI-H460, showed GI50 of > 100 µM (inactive)

The compound CCN(CC)C(=S)SNCc1ccc(S(N)(=O)=O)cc1 , tested on NCI-H460, showed GI50 of 1.34 µM (inactive)

The compound CC(=O)Nc1sccc1S(=O)(=O)c1ccc(Cl)cc1 , tested on NCI-H460, showed GI50 of > 100 µM (inactive)

The compound CC(C)(C)OC(=O)N[C@@H](Cc1ccccc1)C(=O)N1CC[C@@H](C(=O)N2[C@H]3CC4CC[C@@]3(CS2(=O)=O)C4(C)C)N1 , tested on NCI-H460, showed GI50 of 39.4 µM (inactive)

The compound Clc1ccccc1/C=C\C1(c2ccccc2)OCCO1 , tested on NCI-H460, showed GI50 of 16.8 µM (inactive)

The compound COc1ccccc1NC(=O)C(CC(C(=O)Nc1ccccc1OC)/C(C)=N/Nc1ccc([N+](=O)[O-])cc1[N+](=O)[O-])/C(C)=N/Nc1ccc([N+](=O)[O-])cc1[N+](=O)[O-] (stereo unspecified) , tested on NCI-H460, showed GI50 of > 100 µM (inactive)

The compound Nc1cc(C(=O)O)nc(O)n1 , tested on NCI-H460, showed GI50 of > 100 µM (inactive)

The compound CCOc1ccc(/N=N/c2ccc(-c3ccc(/N=N/c4c(O)ccc5cc(S(=O)(=O)O)cc(S(=O)(=O)O)c45)cc3)cc2)cc1 , tested on NCI-H460, showed GI50 of > 100 µM (inactive)

The compound Sc1nnc(-c2ccccc2Nc2ccccc2-c2nnc(S)n2-c2ccccc2)n1-c1ccccc1 , tested on NCI-H460, showed GI50 of 37.1 µM (inactive)

The compound CCOC(=O)/C(=C\NCc1ccc2c(c1)OCO2)c1nc2ccccc2[nH]1 , tested on NCI-H460, showed GI50 of 24.9 µM (inactive)

The compound CCOC(=O)C(C)(C)Oc1ccc2c(=O)cc(-c3ccc(Cl)cc3)oc2c1 , tested on NCI-H460, showed GI50 of > 100 µM (inactive)

The compound COc1ccc(N[C@H](C[S+]([O-])c2ccc(C)cc2)c2ccc(F)cc2)cc1 (stereo partly specified) , tested on NCI-H460, showed GI50 of 91.2 µM (inactive)

====

- Test system: SF-268
- test_description: NCI tumour cell line growth inhibition, 48 h
Calls of active or inactive are those of the source. Cut-off read from the data, not from the text of the source: active = GI50 up to about 1.1 µM and inactive = higher.
measured_metric: GI50

GI50 reading for CCOC(=O)CSc1[nH]c2nc(C)nc(Cl)c2c1C#N : > 10 µM (inactive)

GI50 reading for COc1ccc(C(=O)N2CCN(c3ccc4c(c3)OCC(=O)N4)CC2)cc1 : > 100 µM (inactive)

GI50 reading for COc1ccc(C(=O)c2c(-c3ccccc3NC(=O)C(F)(F)F)[nH]c3ccccc23)cc1 : 12.8 µM (inactive)

GI50 reading for C=CC1C(OC2OC(CO)C(O)C(O)C2O)OC=C(C(=O)OC)C1CC1CC(=O)CC(CCc2ccc(O)cc2)O1 (stereo unspecified) : > 100 µM (inactive)

GI50 reading for OCN(CO)c1ccc2c(c1)Cc1cc(F)ccc1-2 : 23.8 µM (inactive)

GI50 reading for C=CCO[C@]1(CC=C)C(=O)C(=O)OC1C1COC(C)(C)O1 (stereo partly specified) : 26.6 µM (inactive)

GI50 reading for Cc1nc2c(n1Cc1ccc(F)cc1)C(=O)c1ccccc1C2=O : 4.6 µM (inactive)

GI50 reading for NC1(C(=O)O)CCC(C(=O)O)CC1 (stereo unspecified) : > 100 µM (inactive)

GI50 reading for O=C1NC(N2CCCC(CO)C2)=N/C1=C\c1ccccc1 (stereo unspecified) : > 100 µM (inactive)

GI50 reading for O=C(CCCN1CCC2(CC1)NC(=O)c1ccccc1O2)c1ccc(F)cc1 : > 100 µM (inactive)

GI50 reading for CSc1nncc(-c2cc3c(c(SC)n2)CCCC3)n1 : 26.9 µM (inactive)
